system: BMP response element (BRE) luciferase reporter in HuH7 cells, BMP6 stimulated; experiment: BMP signaling reporter gene assay; format: cell-based; conditions: Homo sapiens, Huh-7; HuH7 BRE-luciferase, BMP6 100 ng/ml, 5 hours; read-out: MSD BMP RGA IC50
METRIC: pIC50
Numbers only, as −log10 of the molar value.

Output measured pIC50 for this item: Nc1ncc(-c2ccc([C@]34C[C@H]3CN(CCC(F)(F)F)C4)cc2)cc1C(=O)N[C@H]1CC[C@H](O)CC1 [Example 17]
6.82

// input: 2 molecules below; output: pIC50 for each
1. Nc1ncc(-c2cccc(C(=O)N3CCOCC3)c2)cc1C(=O)NC1CCCCC1 [Example 84]
2. Nc1ncc(-c2ccc([C@]34C[C@H]3CN(CCN3CCOCC3)C4)cc2)cc1C(=O)N[C@H]1CC[C@H](O)CC1 [Example 13]

1. 5.02
2. 7.11
